# tested.target: D(3) dopamine receptor (Homo sapiens, UniProt P35462)
# Sequence (P35462 as listed by the source): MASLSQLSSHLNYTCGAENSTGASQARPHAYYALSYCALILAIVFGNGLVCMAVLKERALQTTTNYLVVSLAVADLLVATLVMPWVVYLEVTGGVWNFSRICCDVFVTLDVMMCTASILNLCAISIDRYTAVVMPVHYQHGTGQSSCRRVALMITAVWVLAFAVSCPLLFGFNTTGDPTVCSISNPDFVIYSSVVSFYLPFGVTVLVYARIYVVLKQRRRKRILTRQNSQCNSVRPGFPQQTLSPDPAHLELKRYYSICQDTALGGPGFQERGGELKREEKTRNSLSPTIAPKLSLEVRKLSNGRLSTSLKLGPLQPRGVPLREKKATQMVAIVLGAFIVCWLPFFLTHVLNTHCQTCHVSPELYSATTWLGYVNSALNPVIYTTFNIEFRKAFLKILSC
measurement.name: pKi
Scale: negative log10 of molar concentration, which is what pKi denotes.

# returns recorded pKi (system: D(3) dopamine receptor (Homo sapiens, UniProt P35462)) for Cc1cccc2nc(C(=O)NCC(C)N(C)C)cn12 (centres undefined) [ZINC 46272073, 50] 5.00

====

# tested.target: D(3) dopamine receptor (Homo sapiens, UniProt P35462)
Measured Ki, listed per entry for reference.
Return type: number; implicit unit µM.

Example molecules with recorded Ki:
molecule	measurement.units	Ki
CC(C)(CO)NCc1ccc(-c2ccccc2)o1 [ZINC 529108, 67]	µM	9.58
CNCc1ccc(-c2cc(Cl)cc(Cl)c2)o1 [Azanium analog, 55]	µM	0.2

# returns recorded Ki (system: D(3) dopamine receptor (Homo sapiens, UniProt P35462)) for O[C@@H](CN1CCC(Oc2cccc(F)c2)CC1)c1cccs1 [ZINC 19294224, 9] 9.46
